# Tested Target: Amine oxidase [flavin-containing] A (Rattus norvegicus, UniProt P21396)
pIC50: −log10 of the molar value.
Class true (1): pIC50 at least 5. Class false (0): pIC50 below 5.

Look over these answered cases.
compound="COc1cc(SCCc2ccccc2)c(OC)cc1CC(C)N (stereo unspecified)" qualitative_label="false (0)"
compound="COc1ccc(OC)c(CC(C)N)c1 (stereo unspecified)" qualitative_label="false (0)"
compound="CCSc1cc(OC)c(CC(C)N)cc1OC (stereo unspecified)" qualitative_label="true (1)"
compound="COc1cc(CC(C)N)c(OC)cc1Br (stereo unspecified)" qualitative_label="false (0)"
compound="COc1cc([N+](=O)[O-])c(OC)cc1CC(C)N (stereo unspecified)" qualitative_label="false (0)"
compound="COc1cc(CC(C)N)c(OC)cc1I (stereo unspecified)" qualitative_label="false (0)"
compound="CNC(C)Cc1cc(OC)c(SC)cc1OC (stereo unspecified)" qualitative_label="true (1)"
compound="COc1ccc(CC(C)N)cc1 (stereo unspecified)" qualitative_label="true (1)"
compound="CCCCCSc1cc(OC)c(CC(C)N)cc1OC (stereo unspecified)" qualitative_label="false (0)"
compound="CSc1ccc(CC(C)N)cc1 (stereo unspecified)" qualitative_label="true (1)"

Query: In plain terms: is recorded pIC50 at least 5 for COc1cc(CC(C)N)c(OC)cc1C (stereo unspecified) ?
Result: false (0)

Query: In plain terms: is recorded pIC50 at least 5 for CCSc1ccc(CC(C)N)cc1 (stereo unspecified) ?
Result: true (1)

Query: In plain terms: is recorded pIC50 at least 5 for COc1cc(C(F)(F)F)c(OC)cc1CC(C)N (stereo unspecified) ?
Result: false (0)

---

# Tested Target: Amine oxidase [flavin-containing] A (Rattus norvegicus, UniProt P21396)
# Sequence (P21396 whole entry): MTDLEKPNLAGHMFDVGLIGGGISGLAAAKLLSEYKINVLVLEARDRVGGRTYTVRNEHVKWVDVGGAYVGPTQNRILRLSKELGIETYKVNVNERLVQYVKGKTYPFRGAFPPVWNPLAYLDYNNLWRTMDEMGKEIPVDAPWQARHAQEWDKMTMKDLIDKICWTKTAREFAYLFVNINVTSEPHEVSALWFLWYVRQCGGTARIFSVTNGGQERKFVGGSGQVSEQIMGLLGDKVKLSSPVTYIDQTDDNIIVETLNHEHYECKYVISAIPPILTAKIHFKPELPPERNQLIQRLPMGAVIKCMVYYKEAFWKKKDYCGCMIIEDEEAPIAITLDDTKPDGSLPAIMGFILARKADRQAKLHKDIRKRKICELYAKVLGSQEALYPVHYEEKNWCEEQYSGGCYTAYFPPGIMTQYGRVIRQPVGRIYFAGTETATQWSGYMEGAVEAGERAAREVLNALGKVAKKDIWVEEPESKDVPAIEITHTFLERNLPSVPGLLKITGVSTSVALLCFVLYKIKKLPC
The entries below are paired with their reported pIC50.
The meaning of pIC50 here: minus log10 of the concentration in molar units.

Query: Find pIC50 for CCCSc1cc(OC)c(CC(N)CC)cc1OC (stereo not drawn) on Amine oxidase [flavin-containing] A (Rattus norvegicus, UniProt P21396) and write it down.
Result: 5.12

Query: Find pIC50 for COc1cc(OC)c(CC(C)N)cc1Br (stereo not drawn) on Amine oxidase [flavin-containing] A (Rattus norvegicus, UniProt P21396) and write it down.
Result: 4.89

Query: Find pIC50 for CCSc1cc(OC)c(CC(N)CC)cc1OC (stereo not drawn) on Amine oxidase [flavin-containing] A (Rattus norvegicus, UniProt P21396) and write it down.
Result: 4.93
